# TEST_PROTOCOL: protein stability index of a GFP-peptide fusion (yeast GPS) (PSI 1-4); higher = more stable; sorted into four equal gates, so the index is relative within each strain
# ASSAY_CONDITIONS: san1∆

[
  {
    "RESIDUE_STRING": "TSKMNLSEDVNLETLVT [RPT2]",
    "protein stability index": 2.62
  },
  {
    "RESIDUE_STRING": "NIEERKEKIQHELGINI [BRR2]",
    "protein stability index": 3.52
  },
  {
    "RESIDUE_STRING": "YGDGNGKGDNDNGLGPL [SWI3]",
    "protein stability index": 3.31
  },
  {
    "RESIDUE_STRING": "LNLLSQNNTTKFHSELQ [RPN12]",
    "protein stability index": 1.67
  },
  {
    "RESIDUE_STRING": "PEQYSDILLNERVWNIC [AAR2]",
    "protein stability index": 2.68
  },
  {
    "RESIDUE_STRING": "QSYFSQLKFEGFALNSD [BRR2]",
    "protein stability index": 1.17
  },
  {
    "RESIDUE_STRING": "TVQLTFLIDVLKIYAQI [YCG1]",
    "protein stability index": 1.74
  },
  {
    "RESIDUE_STRING": "SSENNQIILAYIKYNIL [SRP68]",
    "protein stability index": 2.92
  },
  {
    "RESIDUE_STRING": "VNAMRVLYYRDARSSRN [PRE4]",
    "protein stability index": 2.57
  },
  {
    "RESIDUE_STRING": "ITFHPKIRARSITLQGD [SMC2]",
    "protein stability index": 2.69
  },
  {
    "RESIDUE_STRING": "NFNDIPPSVTLQDWQRE [YDL088C/ASM4]",
    "protein stability index": 2.44
  },
  {
    "RESIDUE_STRING": "QHHVTDADKLSFNCENF [YML031W/NDC1]",
    "protein stability index": 2.3
  },
  {
    "RESIDUE_STRING": "QQMQPPNSSANNNPLQQ [GAL11]",
    "protein stability index": 2.89
  },
  {
    "RESIDUE_STRING": "HTPMVNFESISARSSVH [SRB8]",
    "protein stability index": 1.79
  },
  {
    "RESIDUE_STRING": "PFSYLIDETMMDKPLNF [SRB5]",
    "protein stability index": 2.83
  },
  {
    "RESIDUE_STRING": "NSAVNNAISNTQDDFTT [SRP54]",
    "protein stability index": 3.04
  },
  {
    "RESIDUE_STRING": "LKKKVVDPFTRKEWFDI [RPS1B]",
    "protein stability index": 3.18
  },
  {
    "RESIDUE_STRING": "DKARRLGYKAKQGFVIY [RPL15A]",
    "protein stability index": 2.91
  },
  {
    "RESIDUE_STRING": "GSQIKFIVVPDLLKNAP [SMD3]",
    "protein stability index": 1.8
  },
  {
    "RESIDUE_STRING": "DRNLTEFDSTDTSLCIN [RRI1]",
    "protein stability index": 2.59
  },
  {
    "RESIDUE_STRING": "EHAKWGPAAAIEFEYDP [RPB3]",
    "protein stability index": 2.36
  },
  {
    "RESIDUE_STRING": "ASKSGKLTQKLVTAGVA [CYT1]",
    "protein stability index": 2.45
  }
]
